- Tgt: T1, purified human αvβ3 integrin protein (human, UniProt P06756 31-1048; P05106 27-788)
- T1 construct: Bought heterodimer; also called ABI; purified αvβ3 integrin
- Experiment Notes: competition with 125I-echistatin on purified human αvβ3 integrin, filter plate
[ ]: non-standard residue; d: D form. The star is where a group is joined. Cypate = CC1(C)C(/C=C/C=C/C=C/C=C2/N(CCC(=O)*)c3ccc4ccccc4c3C2(C)C)=[N+](CCC(=O)O)c2ccc3ccccc3c21
Entries and their measured pIC50 follow.
API: returns pIC50 as number; meaning -log10 of concentration in mol/L.

>>> observed_result("CRGDLC (HELM PEPTIDE1{[CC1(C)C(/C=C/C=C/C=C/C=C2/N(CCC(=O)[*:2])c3ccc4ccccc4c3C2(C)C)=[N+](CCC(=O)O)c2ccc3ccccc3c21].C.R.G.D.L.C.[am]}$PEPTIDE1,PEPTIDE1,2:R3-7:R3$$$V2.0; SMILES CC(C)C[C@@H]1NC(=O)[C@H](CC(=O)O)NC(=O)CNC(=O)[C@H](CCCNC(=N)N)NC(=O)[C@@H](NC(=O)CCN2/C(=C/C=C/C=C/C=C/C3=[N+](CCC(=O)O)c4ccc5ccccc5c4C3(C)C)C(C)(C)c3c2ccc2ccccc32)CSSC[C@@H](C(N)=O)NC1=O) [Cypate-cyclo(CRGDLC)-NH2]")
5.02
>>> observed_result("CRGDDC (HELM PEPTIDE1{[CC1(C)C(/C=C/C=C/C=C/C=C2/N(CCC(=O)[*:2])c3ccc4ccccc4c3C2(C)C)=[N+](CCC(=O)O)c2ccc3ccccc3c21].C.R.G.D.D.C.[am]}$PEPTIDE1,PEPTIDE1,2:R3-7:R3$$$V2.0; SMILES CC1(C)C(/C=C/C=C/C=C/C=C2/N(CCC(=O)N[C@H]3CSSC[C@@H](C(N)=O)NC(=O)[C@H](CC(=O)O)NC(=O)[C@H](CC(=O)O)NC(=O)CNC(=O)[C@H](CCCNC(=N)N)NC3=O)c3ccc4ccccc4c3C2(C)C)=[N+](CCC(=O)O)c2ccc3ccccc3c21) [Cypate-cyclo(CRGDDC)-NH2]")
5.72
>>> observed_result("CRGDC (HELM PEPTIDE1{[CC1(C)C(/C=C/C=C/C=C/C=C2/N(CCC(=O)[*:2])c3ccc4ccccc4c3C2(C)C)=[N+](CCC(=O)O)c2ccc3ccccc3c21].C.R.G.D.C.[am]}$PEPTIDE1,PEPTIDE1,2:R3-6:R3$$$V2.0; SMILES CC1(C)C(/C=C/C=C/C=C/C=C2/N(CCC(=O)N[C@H]3CSSC[C@@H](C(N)=O)NC(=O)[C@H](CC(=O)O)NC(=O)CNC(=O)[C@H](CCCNC(=N)N)NC3=O)c3ccc4ccccc4c3C2(C)C)=[N+](CCC(=O)O)c2ccc3ccccc3c21, also called Cypate-cyclo(CRGDC)-NH2) [Cypate-Cyclo(Cys-Arg-Gly-Asp-Cys)-NH2]")
5.34
>>> observed_result("CRGDGRC (HELM PEPTIDE1{[CC1(C)C(/C=C/C=C/C=C/C=C2/N(CCC(=O)[*:2])c3ccc4ccccc4c3C2(C)C)=[N+](CCC(=O)O)c2ccc3ccccc3c21].C.R.G.D.G.R.C.[am]}$PEPTIDE1,PEPTIDE1,2:R3-8:R3$$$V2.0; SMILES CC1(C)C(/C=C/C=C/C=C/C=C2/N(CCC(=O)N[C@H]3CSSC[C@@H](C(N)=O)NC(=O)[C@H](CCCNC(=N)N)NC(=O)CNC(=O)[C@H](CC(=O)O)NC(=O)CNC(=O)[C@H](CCCNC(=N)N)NC3=O)c3ccc4ccccc4c3C2(C)C)=[N+](CCC(=O)O)c2ccc3ccccc3c21) [Cypate-cyclo(CRGDGRC)-NH2]")
5.96
>>> observed_result("CRGDSC (HELM PEPTIDE1{[CC1(C)C(/C=C/C=C/C=C/C=C2/N(CCC(=O)[*:2])c3ccc4ccccc4c3C2(C)C)=[N+](CCC(=O)O)c2ccc3ccccc3c21].C.R.G.D.S.C.[am]}$PEPTIDE1,PEPTIDE1,2:R3-7:R3$$$V2.0; SMILES CC1(C)C(/C=C/C=C/C=C/C=C2/N(CCC(=O)N[C@H]3CSSC[C@@H](C(N)=O)NC(=O)[C@H](CO)NC(=O)[C@H](CC(=O)O)NC(=O)CNC(=O)[C@H](CCCNC(=N)N)NC3=O)c3ccc4ccccc4c3C2(C)C)=[N+](CCC(=O)O)c2ccc3ccccc3c21, also called Cypate-[Cyclo-(Cys-Arg-Gly-Asp-Ser-Cys)]1) [Cypate-cyclo(CRGDSC)-NH2]")
5.94

Moving on to the next binder.
Given item cyclo(K(Cypate)RGD[dF]V) (SMILES CC(C)[C@@H]1NC(=O)[C@@H](Cc2ccccc2)NC(=O)[C@H](CC(=O)O)NC(=O)CNC(=O)[C@H](CCCNC(=N)N)NC(=O)[C@H](CCCCNC(=O)CCN2/C(=C/C=C/C=C/C=C/C3=[N+](CCC(=O)O)c4ccc5ccccc5c4C3(C)C)C(C)(C)c3c2ccc2ccccc32)NC1=O, also called Cyclo(K^(Cypate)RGDfV); cyclo-[K^(Cypate)RGDfV]) [Cyclo(Lys(Cypate)-Arg-Gly-Asp-DPhe-Val)] , the value recorded as its pIC50 is 4.10
